Data provenance: the supplement of paper PMC6555819

The following sequences are shown together with reported PBM binding z-score values.
Tested on: PPARg:RXRa 270nM:90nM, anti-RXR (NR concentration 270 nM, RXRa partner concentration 90 nM)
test summary: PBM binding z-score (relative to random genomic background probes); higher = stronger binding; sequences stand for … in GC…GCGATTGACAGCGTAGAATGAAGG
Kindly provide the number alone.

Please review the following examples before continuing.
{"chain": "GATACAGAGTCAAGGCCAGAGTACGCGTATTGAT", "endpoint value": -0.0744}
{"chain": "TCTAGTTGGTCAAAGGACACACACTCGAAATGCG", "endpoint value": 5.5}
{"chain": "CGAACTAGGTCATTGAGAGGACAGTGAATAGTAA", "endpoint value": 5.99}
{"chain": "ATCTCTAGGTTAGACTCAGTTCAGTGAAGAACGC", "endpoint value": 0.742}
{"chain": "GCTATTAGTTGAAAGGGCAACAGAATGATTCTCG", "endpoint value": 4.2}
{"chain": "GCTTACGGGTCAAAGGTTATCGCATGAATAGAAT", "endpoint value": 9.26}
{"chain": "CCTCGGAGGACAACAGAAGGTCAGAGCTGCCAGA", "endpoint value": 0.249}
{"chain": "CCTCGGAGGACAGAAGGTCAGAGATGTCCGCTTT", "endpoint value": 0.542}
{"chain": "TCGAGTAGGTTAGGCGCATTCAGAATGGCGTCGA", "endpoint value": 0.786}
{"chain": "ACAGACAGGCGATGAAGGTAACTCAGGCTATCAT", "endpoint value": -0.326}

Query :: Find the measured PBM binding z-score of `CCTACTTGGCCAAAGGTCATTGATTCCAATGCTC` and report it.
Result :: 8.35

Query :: Give the reported value of PBM binding z-score for this record: `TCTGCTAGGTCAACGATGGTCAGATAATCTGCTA`
Result :: 3.22

* * *

System: RARb homodimer (NR concentration 270 nM)
test summary: PBM binding z-score (relative to random genomic background probes); higher = stronger binding; sequences stand for … in GC…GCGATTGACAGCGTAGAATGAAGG
Values of PBM binding z-score greater than or equal to 1 map to true (1); values below map to false (0).

For orientation, consider the following solved cases.
{"chain": "AAAGACAGGTGAGTGAAGGTAACTCAGCTGGACG", "assigned label": "false (0)"}
{"chain": "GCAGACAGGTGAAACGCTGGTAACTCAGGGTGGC", "assigned label": "false (0)"}
{"chain": "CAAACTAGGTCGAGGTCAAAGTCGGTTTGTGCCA", "assigned label": "true (1)"}
{"chain": "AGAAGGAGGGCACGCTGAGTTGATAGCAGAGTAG", "assigned label": "true (1)"}
{"chain": "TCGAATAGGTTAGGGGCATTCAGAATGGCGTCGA", "assigned label": "true (1)"}

As a next step, examine the sequence that follows.
Query :: Entry `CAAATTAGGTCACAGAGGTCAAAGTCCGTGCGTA` : is its PBM binding z-score no less than 1?
Result :: true (1)

* * *

Tested on: PPARg:RXRa (NR concentration 180 nM, RXRa partner concentration 90 nM)
test summary: PBM binding z-score (relative to random genomic background probes); higher = stronger binding; sequences stand for … in GC…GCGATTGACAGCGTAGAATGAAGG
property: PBM binding z-score

{"chain": "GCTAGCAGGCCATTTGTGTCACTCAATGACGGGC", "test system": "PPARg:RXRa (NR concentration 180 nM, RXRa partner concentration 90 nM)", "PBM binding z-score": 0.274}
{"chain": "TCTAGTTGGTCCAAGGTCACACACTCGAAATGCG", "test system": "PPARg:RXRa (NR concentration 180 nM, RXRa partner concentration 90 nM)", "PBM binding z-score": 4.19}
{"chain": "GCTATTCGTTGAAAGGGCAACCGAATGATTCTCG", "test system": "PPARg:RXRa (NR concentration 180 nM, RXRa partner concentration 90 nM)", "PBM binding z-score": 1.23}
{"chain": "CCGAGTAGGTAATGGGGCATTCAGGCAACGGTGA", "test system": "PPARg:RXRa (NR concentration 180 nM, RXRa partner concentration 90 nM)", "PBM binding z-score": 3.13}
{"chain": "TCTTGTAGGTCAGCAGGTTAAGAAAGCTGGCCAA", "test system": "PPARg:RXRa (NR concentration 180 nM, RXRa partner concentration 90 nM)", "PBM binding z-score": 6.77}

Query :: Query PBM binding z-score for `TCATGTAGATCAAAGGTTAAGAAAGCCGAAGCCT`
Result :: 8.22

Query :: Let me know recorded PBM binding z-score for `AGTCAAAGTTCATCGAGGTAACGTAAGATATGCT` , thanks.
Result :: 6.71

Query :: Determine from records and report PBM binding z-score for `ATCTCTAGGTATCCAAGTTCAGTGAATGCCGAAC`
Result :: 0.0341

Query :: Give the value of PBM binding z-score reported for the following: `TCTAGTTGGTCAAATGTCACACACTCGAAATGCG`
Result :: 5.26

* * *

Test system: LXRa:RXRa (NR concentration 270 nM, RXRa partner concentration 90 nM)
test summary: PBM binding z-score (relative to random genomic background probes); higher = stronger binding; sequences stand for … in GC…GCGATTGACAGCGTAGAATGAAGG
Measured PBM binding z-score values are reported for all entries that follow.

Consider the following illustrative entries.
{"chain": "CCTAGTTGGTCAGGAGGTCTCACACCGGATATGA", "test system": "LXRa:RXRa (NR concentration 270 nM, RXRa partner concentration 90 nM)", "endpoint value": 0.219}
{"chain": "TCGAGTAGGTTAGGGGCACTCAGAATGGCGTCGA", "test system": "LXRa:RXRa (NR concentration 270 nM, RXRa partner concentration 90 nM)", "endpoint value": -0.0493}
{"chain": "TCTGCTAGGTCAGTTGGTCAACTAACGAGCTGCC", "test system": "LXRa:RXRa (NR concentration 270 nM, RXRa partner concentration 90 nM)", "endpoint value": 0.627}
{"chain": "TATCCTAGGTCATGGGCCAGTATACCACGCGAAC", "test system": "LXRa:RXRa (NR concentration 270 nM, RXRa partner concentration 90 nM)", "endpoint value": 5.58}
{"chain": "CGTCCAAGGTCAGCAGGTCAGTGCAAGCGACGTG", "test system": "LXRa:RXRa (NR concentration 270 nM, RXRa partner concentration 90 nM)", "endpoint value": 3.79}

Query :: Given the sequence `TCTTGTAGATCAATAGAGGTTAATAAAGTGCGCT` , write its reported PBM binding z-score.
Result :: 5.4

Query :: Look up PBM binding z-score of `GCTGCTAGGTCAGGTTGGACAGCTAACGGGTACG` and report it.
Result :: 0.591

Query :: # return recorded PBM binding z-score for input `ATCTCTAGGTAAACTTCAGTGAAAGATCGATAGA`
Result :: 0.515

Query :: # return recorded PBM binding z-score for input `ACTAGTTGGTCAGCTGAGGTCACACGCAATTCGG`
Result :: 3.59

Query :: Please list PBM binding z-score recorded for the sequence `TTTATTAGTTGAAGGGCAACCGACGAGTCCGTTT`
Result :: 0.834

Query :: Read off the recorded PBM binding z-score for `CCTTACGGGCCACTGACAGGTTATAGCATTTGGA`
Result :: -0.00158

Query :: Provide PBM binding z-score value for the following sequence: `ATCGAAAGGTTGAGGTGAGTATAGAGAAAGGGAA`
Result :: 0.95

* * *

System: RARb:RXRa (NR concentration 270 nM, RXRa partner concentration 90 nM)
test summary: PBM binding z-score (relative to random genomic background probes); higher = stronger binding; sequences stand for … in GC…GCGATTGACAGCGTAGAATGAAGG
Each record gets a class by PBM binding z-score: small value (below 0.6), mid value (0.6 to below 3), large value (3 or more)

{"chain": "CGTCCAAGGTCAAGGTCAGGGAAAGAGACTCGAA", "assigned label": "large value"}
{"chain": "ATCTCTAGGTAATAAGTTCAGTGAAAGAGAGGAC", "assigned label": "mid value"}
{"chain": "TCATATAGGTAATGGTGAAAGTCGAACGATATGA", "assigned label": "small value"}
{"chain": "CTCGGAAGGTCGGTTGAGGTGAGTATACGGATAA", "assigned label": "mid value"}
{"chain": "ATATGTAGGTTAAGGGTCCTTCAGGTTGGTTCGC", "assigned label": "mid value"}
{"chain": "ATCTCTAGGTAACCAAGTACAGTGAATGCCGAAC", "assigned label": "small value"}
{"chain": "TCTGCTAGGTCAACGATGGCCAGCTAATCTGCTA", "assigned label": "large value"}
{"chain": "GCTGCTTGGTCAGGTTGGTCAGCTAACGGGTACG", "assigned label": "mid value"}
{"chain": "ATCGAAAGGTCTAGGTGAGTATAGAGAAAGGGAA", "assigned label": "mid value"}
{"chain": "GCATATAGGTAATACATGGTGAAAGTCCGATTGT", "assigned label": "small value"}

Consider the record given below.
Query :: Which bin should I file `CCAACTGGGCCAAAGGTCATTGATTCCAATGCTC` under?
Result :: large value
